Source of measurements: ChEMBL document CHEMBL1126828

target: UniProt P42866
Sequence (P42866 whole entry): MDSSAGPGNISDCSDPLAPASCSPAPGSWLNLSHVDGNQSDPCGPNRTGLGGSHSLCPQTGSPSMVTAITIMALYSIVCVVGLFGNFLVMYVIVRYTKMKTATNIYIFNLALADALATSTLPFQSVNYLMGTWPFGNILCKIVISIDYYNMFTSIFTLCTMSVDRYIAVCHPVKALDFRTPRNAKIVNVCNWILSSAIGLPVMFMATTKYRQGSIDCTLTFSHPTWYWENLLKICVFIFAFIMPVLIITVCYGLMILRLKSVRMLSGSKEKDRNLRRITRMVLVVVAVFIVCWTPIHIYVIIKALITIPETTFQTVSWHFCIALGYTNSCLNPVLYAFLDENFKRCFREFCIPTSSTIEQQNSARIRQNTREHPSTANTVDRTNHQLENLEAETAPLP
assayExplanation: Antagonism of opioid analgesia using a mouse writhing model to block morphine ([…]) induced mu-opioid receptor (subcutaneously dosed)
Format: functional, organism-based
Field: AD50. Provide a value for each of the compounds that follow.
Answers are plain numbers, in mg/kg.

Worked set:
> print(dat)
                                   compound          target  scaleunit  recordedmeasurement
1  C[C@H]1CN(CCC(O)c2cccs2)CC[C@@]1(C)c1cccc(O)c1 (stereo not given in full)  UniProt P42866      mg/kg                 0.07
2  CCCCCCN1CC[C@@](C)(c2cccc(O)c2)[C@@H](C)C1  UniProt P42866      mg/kg                0.052
3  COc1ccccc1CCCN1CC[C@@](C)(c2cccc(O)c2)[C@@H](C)C1  UniProt P42866      mg/kg                 0.18
4  Cc1ccccc1CCCN1CC[C@@](C)(c2cccc(O)c2)[C@@H](C)C1  UniProt P42866      mg/kg                 0.05
5   C[C@H]1CN(CC2CC2)CC[C@@]1(C)c1cccc(O)c1  UniProt P42866      mg/kg                  1.3
6  C[C@H]1CN(CCc2cccc3ccccc23)CC[C@@]1(C)c1cccc(O)c1  UniProt P42866      mg/kg                 0.08
7  C[C@H]1CN(CCOc2ccccc2)CC[C@@]1(C)c1cccc(O)c1  UniProt P42866      mg/kg                 0.14
8  C[C@H]1CN(Cc2ccoc2)CC[C@@]1(C)c1cccc(O)c1  UniProt P42866      mg/kg                  0.4

For every item in the list below, what is its measured AD50?
1. C[C@H]1CN(CCC(=O)c2ccccc2)CC[C@@]1(C)c1cccc(O)c1 (stereo in doubt; 6)
2. C[C@H]1CN(CCc2ccccc2Cl)CC[C@@]1(C)c1cccc(O)c1

0.14
0.31

---

target: UniProt:P34975
Sequence (P34975 whole entry): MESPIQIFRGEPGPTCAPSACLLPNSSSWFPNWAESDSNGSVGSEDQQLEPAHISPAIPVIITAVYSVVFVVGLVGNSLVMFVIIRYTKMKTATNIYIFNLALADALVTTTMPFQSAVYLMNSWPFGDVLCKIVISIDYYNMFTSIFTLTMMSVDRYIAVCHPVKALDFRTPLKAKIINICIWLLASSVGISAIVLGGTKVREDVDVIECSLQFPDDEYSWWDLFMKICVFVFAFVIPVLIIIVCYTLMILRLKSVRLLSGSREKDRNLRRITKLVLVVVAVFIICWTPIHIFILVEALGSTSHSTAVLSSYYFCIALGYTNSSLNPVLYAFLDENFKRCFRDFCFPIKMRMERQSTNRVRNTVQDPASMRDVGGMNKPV
assayExplanation: Tested for the antagonism of kappa opioid receptor diuresis at a dose of 0.08 mg/kg subcutaneously
Format: functional, organism-based
Parameters: dose 0.08 mg/kg
recordedEndpoint: AD50 (mg/kg)
One number for each entry, in mg/kg.

> print(dat)
                                   compound          target  recordedendpoint  recordedmeasurement
1  C[C@H]1CN(CCc2cccs2)CC[C@@]1(C)c1cccc(O)c1  UniProt:P34975              AD50                  3.8
2  CCCCCCN1CC[C@@](C)(c2cccc(O)c2)[C@@H](C)C1  UniProt:P34975              AD50                  0.7
3  CCCCCN1CC[C@@](C)(c2cccc(O)c2)[C@@H](C)C1  UniProt:P34975              AD50                 0.69
4  C[C@H]1CN(CCCc2cccc(Cl)c2)CC[C@@]1(C)c1cccc(O)c1  UniProt:P34975              AD50                   11

Each compound below has a recorded value; state its AD50.
1. C[C@H]1CN(CCOc2ccccc2)CC[C@@]1(C)c1cccc(O)c1
2. Cc1cccc(CCN2CC[C@@](C)(c3cccc(O)c3)[C@@H](C)C2)c1
3. C[C@H]1CN(CCCc2ccccc2)CC[C@@]1(C)c1cccc(O)c1
4. C[C@H]1CN(Cc2ccoc2)CC[C@@]1(C)c1cccc(O)c1
5. Cc1ccccc1CCCN1CC[C@@](C)(c2cccc(O)c2)[C@@H](C)C1
6. C[C@H]1CN(CCCCc2ccccc2)CC[C@@]1(C)c1cccc(O)c1
7. C[C@H]1CN(CCC(O)c2cccs2)CC[C@@]1(C)c1cccc(O)c1 (stereo partly specified)

1: 3; 2: 5.7; 3: 1.1; 4: 3.8; 5: 1.4; 6: 4.1; 7: 1.4
